Test: cell viability in Huh7 cells, primary screen, cytotoxicity control for HCV replication inhibitor project, CellTiter-Glo luminescence, basal, 48 h (AID 1143);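 further: Huh7 hepatoma cells carrying a hepatitis C replication reporter with no stimulus; test concentration not given here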
Details: Huh7 HCV replicon, higher = more signal, called active from +8 up or from −8 down
experimental-endpoint: z-score
In your answer, state the number alone without any accompanying words.

Consider the molecule C#CCN(CC1=CCCCC1)[C@H](c1ccccc1Br)[C@@H](O)Cc1ccccc1 and give its measured z-score.
-1.5

Consider the molecule CC1(C)[C@@H]2CC(C(O)C3C=CC4C(=O)N(c5ccccc5)C(=O)C4N3Nc3ccccc3)=C[C@H]1C2 (some centres undefined) and give its measured z-score.
0.355

Consider the molecule CC(C)(C)C(=O)N[C@@H](c1ccc(Cl)cc1)[C@]1(C)C[C@H]1C1CCCCC1 and give its measured z-score.
-2.95

Consider the molecule C=CC[C@]1(C(=O)N2CCCCC2)N=C(c2ccc(OCCCO)cc2)O[C@H]1c1ccccc1 and give its measured z-score.
-3.83

Consider the molecule C=CC[C@]1(C(=O)NCCCOC)N=C(c2ccc(OCCCO)cc2)O[C@H]1c1ccccc1N=[N+]=[N-] and give its measured z-score.
-2.57

Source of measurements: PubChem BioAssay
